System: MOLT-3 (T cell acute lymphoblastic leukemia)
PROTOCOL TEXT: Cytotoxic activity assay (XTT)
Assay type: cell-based, human
EXPERIMENTAL PARAMETERS: SI = IC50 normal cell (MRC-5)/ IC50 cancer cell
READOUT KIND: Selectivity Index (SI) values MOLT-3
Keep the answer to the number alone.

Here is how some compounds turned out for Selectivity Index (SI) values MOLT-3.
>  <COMPOUND>
C=C1CC[C@H]2C(C)(C)CCC[C@]2(C)[C@H]1CC/C(C)=C/C(=O)NCc1ccccn1

>  <VALUE REPORTED>
2.1

$$$$
>  <COMPOUND>
C=C1CC[C@H]2C(C)(C)CCC[C@]2(C)[C@H]1CC/C(C)=C/C(=O)N(C)O

>  <VALUE REPORTED>
18.8

$$$$
>  <COMPOUND>
C=C1CC[C@H]2C(C)(C)CCC[C@]2(C)[C@H]1CC/C(C)=C/C(=O)N(C)C

>  <VALUE REPORTED>
1.9

$$$$
>  <COMPOUND>
C=C1CC[C@H]2C(C)(C)CCC[C@]2(C)[C@H]1CC/C(C)=C/C(=O)NO

>  <VALUE REPORTED>
1.0

$$$$
>  <COMPOUND>
C=C1CCC2C(C)(C)CCCC2(C)C1CCC(C)=CC(=O)NCC(=O)OCC (stereo not drawn)

>  <VALUE REPORTED>
5.6

$$$$

Now take the following compound into account.
Please provide the recorded Selectivity Index (SI) values MOLT-3 for C=C1CCC2C(C)(C)CCCC2(C)C1CCC(C)=CCO (stereo not drawn) [Compound 2, anticopalol] , tested on MOLT-3 (T cell acute lymphoblastic leukemia).
1.7
